Assay Remarks: Urinary excretion study in rats after oral NS, SF or CNS (LC–MS/MS)
Assay type: in vivo
Condition Info: rat urine, oral NS 60 mg/kg, 6 h
Assay Metric: Accumulative excretion percentage
Write the figure, then the unit, nothing else.

Exercise: Field request: Accumulative excretion percentage | item: CC(C)=CCC[C@](C)(O[C@@H]1O[C@H](CO)[C@@H](O)[C@H](O)[C@H]1O)[C@H]1CC[C@]2(C)[C@@H]1[C@H](O)C[C@@H]1[C@@]3(C)CC[C@H](O)C(C)(C)[C@@H]3[C@@H](O[C@@H]3O[C@H](CO)[C@@H](O)[C@H](O)[C@H]3O)C[C@]12C [ginsenoside Rg1]
Key: 0.285±0.086%

---

Property: Excretion amount; scope: individual molecules
Assay Remarks: Urinary excretion study in rats after oral NS, SF or CNS (LC–MS/MS)
Type: in vivo
Condition Info: rat urine, oral NS 60 mg/kg, 96 h
Kindly answer with a numeric value in µg, unit omitted.

Worked set:
Molecule	Excretion amount [µg]
CC(C)=CCC[C@](C)(O[C@@H]1O[C@H](CO[C@@H]2O[C@H](CO)[C@@H](O)[C@H](O)[C@H]2O)[C@@H](O)[C@H](O)[C@H]1O)[C@H]1CC[C@]2(C)[C@@H]1[C@H](O)C[C@@H]1[C@@]3(C)CC[C@H](O[C@@H]4O[C@H](CO)[C@@H](O)[C@H](O)[C@H]4O[C@@H]4O[C@H](CO)[C@@H](O)[C@H](O)[C@H]4O)C(C)(C)[C@@H]3CC[C@]12C [ginsenoside Rb1]	0.016
CC(C)=CCC[C@](C)(O[C@@H]1O[C@H](CO)[C@@H](O)[C@H](O)[C@H]1O)[C@H]1CC[C@]2(C)[C@@H]1[C@H](O)C[C@@H]1[C@@]3(C)CC[C@H](O)C(C)(C)[C@@H]3[C@@H](O[C@@H]3O[C@H](CO)[C@@H](O)[C@H](O)[C@H]3O)C[C@]12C [ginsenoside Rg1]	0.062

With those in mind, consider the next molecule.
Exercise: Need Excretion amount, item CC(C)=CCC[C@](C)(O[C@@H]1O[C@H](CO)[C@@H](O)[C@H](O)[C@H]1O)[C@H]1CC[C@]2(C)[C@@H]1[C@H](O)C[C@@H]1[C@@]3(C)CC[C@H](O[C@@H]4O[C@H](CO)[C@@H](O)[C@H](O)[C@H]4O[C@@H]4O[C@H](CO)[C@@H](O)[C@H](O)[C@H]4O)C(C)(C)[C@@H]3CC[C@]12C [ginsenoside Rd]
Key: 0.008

---

Assay Remarks: Urinary excretion study in rats after oral NS, SF or CNS (LC–MS/MS)
Assay type: in vivo
Condition Info: rat urine, oral NS 60 mg/kg, 48 h
Assay Metric: Excretion amount (µg)
Report only the number, with the unit µg understood.

Exercise: Item CC(C)=CCC[C@](C)(O[C@@H]1O[C@H](CO)[C@@H](O)[C@H](O)[C@H]1O)[C@H]1CC[C@]2(C)[C@@H]1[C@H](O)C[C@@H]1[C@@]3(C)CC[C@H](O[C@@H]4O[C@H](CO)[C@@H](O)[C@H](O)[C@H]4O[C@@H]4O[C@H](CO)[C@@H](O)[C@H](O)[C@H]4O)C(C)(C)[C@@H]3CC[C@]12C [ginsenoside Rd] has what recorded Excretion amount?
Key: 0.048
